# test details: chemical genetic growth profiling, strain panel (AID 1159580);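 further: tested at 20 µM; growth read once vehicle control cultures reached saturation at 30 °C; 1 = growth at the plate median or of vehicle wells; lower values mean less growth of the strain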
# run conditions: S. cerevisiae deletion strains, growth OD, locus YNL298W, strain CLA4 (second series), stronger effect = lower value
Hit rate of the full screen: of about 5,500 compounds, about 2,000 (36%) were called active. Not shown: some 18% with an inconclusive outcome. Some of the results follow.
Hi there, I'd appreciate the recorded normalized growth for every entry that follows.
Just the number, please.

Given the compound `COc1cc([N+](=O)[O-])ccc1N1CCCC1` , write its reported normalized growth.
0.775

Given the compound `CC(C)(C)c1ccc(CSc2nc(N)cc(=O)[nH]2)cc1` , write its reported normalized growth.
1.01

Given the compound `c1cc(C2CCCCC2)ccc1C1CCCCC1` , write its reported normalized growth.
0.987

Given the compound `COC(=O)c1cc([N+](=O)[O-])ccc1N1CCOCC1` , write its reported normalized growth.
1.05

Given the compound `O=C(c1cccc([N+](=O)[O-])c1)c1cc2cc(Br)cc(Br)c2o1` , write its reported normalized growth.
0.948

Given the compound `COC(=O)c1ccccc1CSc1nccc(C(F)(F)F)n1` , write its reported normalized growth.
0.895

Given the compound `CC(=O)c1cc2ccccc2oc1=O` , write its reported normalized growth.
1.07
